test system: PBMCs; format: cell-based, human
MEASURE_NAME: CC50

// sample Cc1cn([C@H]2C[C@H](N=[N+]=[N-])[C@@H](CO)O2)c(=O)[nH]c1=O [AZT, reference compound] , its CC50 was > 4 µM
